# Tested on: SK-OV-3
# Experiment description: NCI tumour cell line growth inhibition, 48 h
Calls of active or inactive are those of the source. No stated cut-off is given here; in the data, active = GI50 up to about 1.1 µM and inactive = higher.
Quantity: GI50

Examples with answers:
Compound	Result
C=CCOC1OC(CO[Si](C)(C)C(C)(C)C)C(OCc2ccccc2)C(OCc2ccccc2)C1OCc1ccccc1 (configuration not stated)	> 100 µM (inactive)
COc1ccc2c(c1)[n+]([O-])c(-c1ccc(OC)c(OC)c1)c(N)[n+]2[O-]	> 100 µM (inactive)
C[Si](C)(C)/C=C\CCCN1C(=O)CCC1=O	> 100 µM (inactive)
CN1CCN(c2ccc3nc(C4=C(O)C(=O)[C@@H]5C(=C4O)N=C(CO)N5C)[nH]c3n2)CC1	> 100 µM (inactive)
CCc1cc2c(oc3cc(C)ccc32)c(=O)n1C	> 10 µM (inactive)
C1CSCCSCCSCCSC1	> 100 µM (inactive)
CC(C)(C)OC(=O)N[C@H]1CC2(C=C(Cl)C(=O)C(Cl)=C2)OC1=O	> 46.5 µM (inactive)
Cc1nc2ccccc2c(=O)n1/N=C(\N=N\c1ccc(Cl)cc1)c1cccc(-c2ccco2)c1	30.3 µM (inactive)

As a next step, examine the compound that follows.
May I ask what GI50 has been recorded for CC(C)(C)OC(=O)N/N=C(/N)Cc1ccc(Cl)cc1 ? > 100 µM (inactive)
